These entries and their values trace back to patent US20220024982A1.

assayedTarget: T1, MT1-MMP Hemopexin domain (PEX) (UniProt P50281 319-511)
T1 construct: domain: Hemopexin domain (PEX); Target of the fluorescence polarisation assays; also called hemopexin of MT1-MMP; MMP14
testDescription: FP direct binding
Numbered stars: 1 amine (or outer) side, 2 acyl side, 3 side chain; on linkers, the order of the positions; unused ones are H or OH. Bridge positions count the residues as written; N and C are the ends. Square brackets hold non-standard residues; d marks the D form. Ends that are not written are not given here. fluorescein = fluorescein (fluorescent label, [FI]); TBMB = c1c(C[*:1])cc(C[*:3])cc1C[*:2]; Sar = CNCC(=O)O
endpointLabel: Kd (nM)
Please respond with the number in nM and leave the unit unwritten.

binder	Kd / nM
fluorescein-G[Sar][Sar][Sar][Sar][Sar]ACMNQFGCEDFYDICA (linker 8-14-21 via TBMB, fluorescent tracer) [17-69-12-N004]	1
ACPYDWATCLFGDYRCA[Sar][Sar][Sar][Sar][Sar][Sar]K(fluorescein) (linker 2-9-16 via TBMB) [17-88-226-N002]	50
ACPYSWETCLFGDYRCA[Sar][Sar][Sar][Sar][Sar][Sar]K(fluorescein) (linker 2-9-16 via TBMB) [17-88-N006]	14
fluorescein-G[Sar][Sar][Sar][Sar][Sar]ACYNEFACEDFYDICA (linker 8-14-21 via TBMB, fluorescent tracer) [17-69-07-N041]	3.4

Now consider a different binder.
In: Using the record for ACYNEFGCEDFYDICA[Sar][Sar][Sar][Sar][Sar][Sar]K(fluorescein) (linker 2-8-15 via TBMB, fluorescent tracer) [17-69-07-N040] , report its Kd.
Out: 0.52
